- study.target: T1, human GITR (Glucocorticoid-induced TNFR-related gene, TNFRSF18) (human, UniProt Q9Y5U5 26-241)
- T1 construct: also called AITR; huGITR
- T1 sequence: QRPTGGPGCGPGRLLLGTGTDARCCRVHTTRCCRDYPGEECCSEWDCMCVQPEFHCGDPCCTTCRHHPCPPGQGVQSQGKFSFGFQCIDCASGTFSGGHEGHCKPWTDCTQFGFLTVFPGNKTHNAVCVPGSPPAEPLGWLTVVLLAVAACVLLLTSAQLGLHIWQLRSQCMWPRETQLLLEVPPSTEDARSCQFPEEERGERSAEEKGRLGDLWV
- protocol.notes: flow cytometry (MFI), antibody titration on anti-CD3-activated primary human T cells (CD25+CD4+)
measured.metric: EC50 (µg/mL)
One number for each entry, in µg/mL.

Previously resolved entries follow.
35B10 (antibody, human IgG1, kappa, V domains shown, Fully human parental antibody; also called Ab5; SS-12416) VH: QVQLVESGGGVVQPGRSLRLSCAASGFTFSSYGMHWVRQAPGKGLEWVAVIWYAGSNKYYADSVKGRFTISRDNSKNTLYLQMNSLRAEDTAVYYCARGGELSFYYYYGMDVWGQGTTVTVSS VL: DIQMTQSPSSLSASVGDRVTITCRASQGIRNDLGWYQQKPGKAPKRLIYAASTLQSGVPSRFSGSGSGTEFTLTISSLQPEDFATYYCLQHNNYPWTFGQGTKVEIKR : 0.033
42A11 (antibody, human IgG1, kappa, V domains shown, Fully human parental antibody; also called Ab8; SS-12418) VH: QVQLVESGGGVVQPGRSLRLSCAASGFTFSSYGMHWVRQAPGKGLEWVAVIWYEGSNKYYADSVKGRFTISRDNSKNTLYLQMNSLRAEDTAVYYCARGGQLGYYYYSGMDVWGQGTTVTVSS VL: DIQMTQSPSSLSASVGDRVTITCRASQGIRNDLGWYQQKPGKAPKRLIYDASSLQSGVPSRFSGSGSGTDFTLTISSLQPEEFATYYCLQHNNYPWTFGQGTKVEIKR : 0.051

Kindly review the next binder as well.
Fill blank: measured EC50 of the binder 48H12 (antibody, human IgG1, kappa, V domains shown, Fully human parental antibody; also called Ab12; SS-12422) VH: QVQLVESGGGVVQPGRSLRLSCAASGFTFSSYGMHWVRQAPGKGLEWVAVIWYAGSNKYYADSVKGRFTISRDNSKNTVYLQMNSLRAEDTAVYYCARGGQLALYYYYGMDVWGQGTTVTVSS VL: DIQMTQSPSSLSASVGDRVTITCRASQGIRNDLGWYQQKPGKAPKRLIYAASSLQSGVPSRFSGSGSGTEFTLTISSLQPEDFATYYCLQHNNYPWTFGQGTKVEIKR is ____.
0.048
